Taken from paper PMC9415646.

assay: Mouse microsomal stability; format: in vitro ADME; settings: female, CD-1, pH 7.4; mouse liver microsomes; read-out: Mouse Microsomal Stability T1/2
Measured half-life accompanies every entry in the list below.

Example entries begin here.
Task: For the compound `O=[N+]([O-])c1c(CS(=O)(=O)CCC(F)(F)F)nc2c(-c3ccncc3)cc(Cl)cn12` , what half-life is on record?
Output: > 40 min

Task: Given `O=[N+]([O-])c1c(CS(=O)(=O)c2ccc(F)cc2)nc2c(Sc3ccc(Cl)cc3)cc(Cl)cn12` , state its recorded half-life.
Output: 5.7 min

Task: // returns reported half-life for input `O=[N+]([O-])c1c(CS(=O)(=O)CCC(F)(F)F)nc2c(Sc3ccc(Cl)cc3)cc(Cl)cn12`
Output: 9.1 min

Others:
Task: Could you share which half-life value was measured for O=[N+]([O-])c1c(CS(=O)(=O)c2ccccc2)nc2c(Sc3ccc(Cl)cc3)cc(Cl)cn12 [Hit B, reference compound] ?
Output: 3 min

Task: Item `O=[N+]([O-])c1c(CS(=O)(=O)c2ccc(Cl)cc2)nc2c(Sc3ccc(Cl)cc3)cc(Cl)cn12` has what recorded half-life?
Output: 4.5 min

Task: Looking for the measured half-life of `O=[N+]([O-])c1c(CS(=O)(=O)CCC(F)(F)F)nc2c(S(=O)(=O)c3ccc(Cl)cc3)cc(Cl)cn12` , can you help?
Output: 7.9 min

Task: # get_value(readout='half-life', item= O=[N+]([O-])c1c(CS(=O)(=O)c2ccccc2)nc2c(Br)cc(Cl)cn12 [Hit A, reference compound] )
Output: 11 min
